procedure-summary: Protein binding in human hepatocytes
Assay type: ADME, cell-based, Hepatocyte
measurement-conditions: read-out: PB (converted)
fraction unbound values, listed per item

smiles-text	fraction unbound
CC[C@@](N)(c1cnc(C(F)(F)F)c(Cl)c1)c1c2ncn(C3CC3)c(=O)c2nn1C	0.589
CC[C@@](N)(c1cnc(C(F)(F)F)c(Cl)c1)c1c2ccn(C3CC3)c(=O)c2nn1C	0.574
Cn1nc2c(=O)n(C3CC3)cnc2c1[C@](O)(c1cnc(C(F)(F)F)c(Cl)c1)C(F)(F)F	0.535
CC[C@@](O)(c1cnc(C(F)(F)F)c(Cl)c1)c1c2ccn(C3CC3)c(=O)c2nn1C	0.676
Cn1nc2c(=O)n(C3CC3)ncc2c1[C@](O)(c1cnc(C(F)(F)F)c(Cl)c1)C(F)(F)F	0.342
Cn1nc2c(=O)n(C3CC3)ccc2c1[C@](O)(c1cnc(C(F)(F)F)c(Cl)c1)C1CC1	0.578
Cn1nc2c(=O)n(C3CC3)ccc2c1[C@](O)(c1cnc(C(F)(F)F)c(Cl)c1)C(F)(F)F	0.249
Cn1nc2c(=O)n(C3CC3)ncc2c1[C@](N)(c1ccc(C(F)(F)F)c(Cl)c1)C1CC1	0.335

====

The entries below come with measured intrinsic clearance (CLint) values attached.
procedure-summary: Metabolic stability in human liver microsomes assessed as intrinsic clearance at 0.5 uM incubated for 60 mins in presence of NADPH by tandem quadrupole-Time of Flight MS
Assay type: ADME, Microsome
measurement-conditions: 1 h
experimental-endpoint: intrinsic clearance (CLint) (µL/min/mg)

smiles-text	experimental-endpoint	relation-qualifier	reported-value
Cn1nc2c(=O)n(C3CC3)cnc2c1[C@](O)(c1cnc(C(F)(F)F)c(Cl)c1)C(F)(F)F	intrinsic clearance (CLint)	<	3
Cn1nc2c(=O)n(C3CC3)ncc2c1[C@](O)(c1ccc(C(F)(F)F)c(C#N)c1)C(F)(F)F	intrinsic clearance (CLint)	<	3
Cn1nc2c(=O)n(C3CC3)ccc2c1[C@](C)(O)c1cnc(C(F)(F)F)c(Cl)c1	intrinsic clearance (CLint)	=	6.8
Cn1nc2c(=O)n(C3CC3)cc(C3CC3)c2c1Cc1ccc(C(F)(F)F)nc1	intrinsic clearance (CLint)	<	7
Cn1nc2c(=O)n(C3CC3)ccc2c1[C@](N)(c1cnc(C(F)(F)F)c(Cl)c1)C(F)(F)F	intrinsic clearance (CLint)	<	3
Cc1cn(C2CC2)c(=O)c2nn(C)c(Cc3ccc(C(F)(F)F)nc3)c12	intrinsic clearance (CLint)	<	7
CCn1cc(C2CC2)c2c([C@H](O)c3cnc(C(F)(F)F)c(Cl)c3)n(C)nc2c1=O	intrinsic clearance (CLint)	=	6
Cn1nc2c(=O)n(C3CC3)ccc2c1[C@](O)(c1ccc(F)c(Cl)c1)C(F)(F)F	intrinsic clearance (CLint)	<	3
Cn1nc2c(=O)n(C3CC3)ncc2c1[C@](O)(c1ccc(C(F)(F)F)c(Cl)c1)C1CC1	intrinsic clearance (CLint)	<	3
CCn1ccc2c([C@](C)(O)c3cnc(C(F)(F)F)c(Cl)c3)n(C)nc2c1=O	intrinsic clearance (CLint)	=	25
CCn1cc(C2CC2)c2c(Cc3ccc(C(F)(F)F)c(F)c3)n(C)nc2c1=O	intrinsic clearance (CLint)	=	52
CCn1cc(C2CC2)c2c([C@H](O)c3ccc(C(F)(F)F)nc3)n(C)nc2c1=O	intrinsic clearance (CLint)	=	15
CCn1cc(C2CC2)c2c(CN3CCC(F)(F)C(C)(C)C3)n(C)nc2c1=O	intrinsic clearance (CLint)	=	160
CCn1ccc2c(Cc3ccc(C(F)(F)F)nc3)n(C)nc2c1=O	intrinsic clearance (CLint)	<	7
CCn1ccc2c([C@](O)(c3cnc(C(F)(F)F)c(Cl)c3)C3CC3)n(C)nc2c1=O	intrinsic clearance (CLint)	=	3.2
CCn1cc(C)c2c([C@H](O)c3cnc(C(F)(F)F)c(Cl)c3)n(C)nc2c1=O	intrinsic clearance (CLint)	=	3.2
Cn1nc2c(=O)n(C3CC3)ncc2c1[C@](N)(c1ccc(C(F)(F)F)c(Cl)c1)C1CC1	intrinsic clearance (CLint)	<	3
Cn1nc2c(=O)n(C3CC3)ccc2c1[C@](O)(c1ccc(C(F)(F)F)c(Cl)c1)C(F)(F)F	intrinsic clearance (CLint)	<	3
CC[C@@](N)(c1ccc(C(F)(F)F)c(Cl)c1)c1c2cnn(C3CC3)c(=O)c2nn1C	intrinsic clearance (CLint)	<	3
CCn1ccc2c([C@](O)(c3ccc(C(F)(F)F)nc3)C3CC3)n(C)nc2c1=O	intrinsic clearance (CLint)	<	3
Cn1nc2c(=O)n(C3CC3)ccc2c1[C@](O)(c1ccc(C(F)(F)F)nc1)C1CC1	intrinsic clearance (CLint)	<	3
Cn1nc2c(=O)n(C3CC3)ccc2c1[C@](O)(c1cnc(C(F)(F)F)c(Cl)c1)C(F)(F)F	intrinsic clearance (CLint)	<	3
CCn1cc(C)c2c(Cc3ccc(C(F)(F)F)nc3)n(C)nc2c1=O	intrinsic clearance (CLint)	<	7
CCn1cc(C)c2c([C@H](O)c3ccc(C(F)(F)F)nc3)n(C)nc2c1=O	intrinsic clearance (CLint)	<	3
CCn1cc(C2CC2)c2c(Cc3cnc(C(F)(F)F)c(OC)c3)n(C)nc2c1=O	intrinsic clearance (CLint)	=	25
CCn1cc(C2CC2)c2c(Cc3ccc(C(F)(F)F)c(C#N)c3)n(C)nc2c1=O	intrinsic clearance (CLint)	=	64
Cn1nc2c(=O)n(C3CC3)cc(Cl)c2c1Cc1ccc(C(F)(F)F)nc1	intrinsic clearance (CLint)	=	10
CC[C@@](O)(c1cnc(C(F)(F)F)c(Cl)c1)c1c2ccn(C3CC3)c(=O)c2nn1C	intrinsic clearance (CLint)	<	3
CCn1cc(C2CC2)c2c(CN3CCCC(F)(F)C3)n(C)nc2c1=O	intrinsic clearance (CLint)	=	26
Cn1nc2c(=O)n(C3CC3)ccc2c1[C@](O)(c1cnc(C(F)(F)F)c(Cl)c1)C1CC1	intrinsic clearance (CLint)	<	3
CCn1cc(C2CC2)c2c(CN3CCC(F)(F)CC3(C)C)n(C)nc2c1=O	intrinsic clearance (CLint)	=	74
CCn1ccc2c([C@@](O)(CC)c3cnc(C(F)(F)F)c(Cl)c3)n(C)nc2c1=O	intrinsic clearance (CLint)	=	9.3
CCn1cc(C2CC2)c2c(CN3CCC(C)(F)CC3)n(C)nc2c1=O	intrinsic clearance (CLint)	=	18
CCn1cc(C2CC2)c2c(Cc3ccc(C(F)(F)F)nc3)n(C)nc2c1=O	intrinsic clearance (CLint)	=	9
CCn1cc(C2CC2)c2c(Cc3cnc(C(F)(F)F)c(C)c3)n(C)nc2c1=O	intrinsic clearance (CLint)	=	24
CC[C@@](O)(c1ccc(C(F)(F)F)c(C#N)c1)c1c2ccn(C3CC3)c(=O)c2nn1C	intrinsic clearance (CLint)	<	3
CCn1cc(C2CC2)c2c(CN3CCC(F)(F)CC3)n(C)nc2c1=O	intrinsic clearance (CLint)	=	20
CC[C@@](O)(c1cnc(C(F)(F)F)c(Cl)c1)c1c2cnn(C3CC3)c(=O)c2nn1C	intrinsic clearance (CLint)	<	3

====

procedure-summary: Metabolic stability in human liver microsomes assessed as intrinsic clearance at 0.5 uM incubated for 60 mins in presence of NADPH by tandem quadrupole-Time of Flight MS
Assay type: ADME, Microsome
measurement-conditions: 1 h

smiles-text	intrinsic clearance (CLint)
Cn1nc2c(=O)n(C3CC3)ccc2c1[C@](O)(c1ccc(C(F)(F)F)nc1)C(F)(F)F	< 3 µL/min/mg
Cn1nc2c(=O)n(C3CC3)cnc2c1[C@](O)(c1ccc(C(F)(F)F)c(C#N)c1)C(F)(F)F	< 3 µL/min/mg
Cn1nc2c(=O)n(C3CC3)ncc2c1[C@](O)(c1ccc(C(F)(F)F)c(Cl)c1)C(F)(F)F	< 3 µL/min/mg
CC[C@@](O)(c1ccc(F)c(Cl)c1)c1c2ccn(C3CC3)c(=O)c2nn1C	8.4 µL/min/mg
Cn1nc2c(=O)n(C3CC3)ncc2c1[C@](O)(c1cnc(C(F)(F)F)c(Cl)c1)C(F)(F)F	< 3 µL/min/mg
CCn1ccc2c([C@@](O)(CC)c3ccc(C(F)(F)F)nc3)n(C)nc2c1=O	3.6 µL/min/mg
CCn1cc(C)c2c([C@H](N)c3ccc(C(F)(F)F)nc3)n(C)nc2c1=O	< 3 µL/min/mg
CC[C@@](O)(c1cnc(C(F)(F)F)c(Cl)c1)c1c2ncn(C3CC3)c(=O)c2nn1C	3.7 µL/min/mg
Cn1nc2c(=O)n(C3CC3)ccc2c1[C@](O)(c1ccc(C(F)(F)F)c(C#N)c1)C1CC1	< 3 µL/min/mg

====

intrinsic clearance (CLint) values, listed per item
procedure-summary: Metabolic stability in human liver microsomes assessed as intrinsic clearance at 0.5 uM incubated for 60 mins in presence of NADPH by tandem quadrupole-Time of Flight MS
Type: ADME, Microsome
measurement-conditions: 1 h

smiles-text	relation-qualifier	intrinsic clearance (CLint) (µL/min/mg)
CC[C@@](N)(c1cnc(C(F)(F)F)c(Cl)c1)c1c2ncn(C3CC3)c(=O)c2nn1C	<	3
CC[C@@](N)(c1cnc(C(F)(F)F)c(Cl)c1)c1c2ccn(C3CC3)c(=O)c2nn1C	<	3
CCn1cc(Cl)c2c(Cc3ccc(C(F)(F)F)nc3)n(C)nc2c1=O	=	14
CC[C@@](O)(c1ccc(C(F)(F)F)nc1)c1c2ccn(C3CC3)c(=O)c2nn1C	<	3
CCn1cc(C2CC2)c2c([C@H](N)c3ccc(C(F)(F)F)nc3)n(C)nc2c1=O	=	3.8
CC[C@@](O)(c1ccc(C(F)(F)F)c(Cl)c1)c1c2cnn(C3CC3)c(=O)c2nn1C	<	3
CC[C@@](O)(c1cc(F)c(Cl)c(F)c1)c1c2ccn(C3CC3)c(=O)c2nn1C	=	3.2
CCn1cc(C2CC2)c2c(Cc3cnc(C(F)(F)F)c(Cl)c3)n(C)nc2c1=O	=	28
